# study.target: D(2) dopamine receptor (Homo sapiens, UniProt P14416)
# Sequence (P14416 whole entry): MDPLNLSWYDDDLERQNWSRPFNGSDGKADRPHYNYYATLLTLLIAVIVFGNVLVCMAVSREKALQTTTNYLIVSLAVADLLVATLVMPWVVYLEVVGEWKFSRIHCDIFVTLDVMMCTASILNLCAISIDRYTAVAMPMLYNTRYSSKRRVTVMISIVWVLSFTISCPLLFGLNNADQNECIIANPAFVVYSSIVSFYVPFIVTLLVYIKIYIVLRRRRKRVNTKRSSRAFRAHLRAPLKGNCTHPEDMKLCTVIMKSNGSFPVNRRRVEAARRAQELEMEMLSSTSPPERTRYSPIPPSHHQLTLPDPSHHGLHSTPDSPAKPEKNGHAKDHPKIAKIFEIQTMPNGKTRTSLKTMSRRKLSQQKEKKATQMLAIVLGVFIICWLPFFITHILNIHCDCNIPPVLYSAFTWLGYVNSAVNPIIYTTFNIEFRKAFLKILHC
# Type: cell-based, CHO
pKi: −log10 of the molar value.

| cpd.smiles | study.target | pKi |
| --- | --- | --- |
| CCCN(CCC)[C@H]1CCn2c(C=O)ccc2C1 | D(2) dopamine receptor (Homo sapiens, UniProt P14416) | 5.52 |
| CCCN(CCC)[C@H]1CCn2c(C#N)ccc2C1 | D(2) dopamine receptor (Homo sapiens, UniProt P14416) | 5.29 |

###

# study.target: D(3) dopamine receptor (Homo sapiens, UniProt P35462)
# Sequence (P35462 whole entry): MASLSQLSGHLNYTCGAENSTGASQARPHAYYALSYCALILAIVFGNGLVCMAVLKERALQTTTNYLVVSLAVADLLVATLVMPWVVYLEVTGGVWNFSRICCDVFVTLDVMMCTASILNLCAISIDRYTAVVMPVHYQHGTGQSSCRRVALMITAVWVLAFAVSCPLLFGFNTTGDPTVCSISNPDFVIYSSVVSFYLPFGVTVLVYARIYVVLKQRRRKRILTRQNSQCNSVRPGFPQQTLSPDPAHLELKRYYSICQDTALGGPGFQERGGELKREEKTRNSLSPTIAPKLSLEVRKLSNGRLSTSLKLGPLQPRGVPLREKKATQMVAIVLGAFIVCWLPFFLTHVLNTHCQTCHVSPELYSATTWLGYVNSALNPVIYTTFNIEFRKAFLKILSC
# Type: cell-based, CHO
# Description: Inhibition constant against [3H]-spiperone binding to human Dopamine receptor D3 expressed in CHO cells
// boundary case: Ki equal to 600 nM maps to Not satisfied; strictly smaller maps to Satisfied

| cpd.smiles | qualitative.label |
| --- | --- |
| CCCN(CCC)[C@H]1CCn2c(/C=N\O)ccc2C1 | Satisfied |
| CCCN(CCC)[C@@H]1CCn2ccc(C=O)c2C1 | Satisfied |
| CCCN(CCC)[C@H]1CCn2c(ccc2C(=O)c2ccccc2)C1 | Not satisfied |
| CCCN(CCC)[C@H]1CCn2ccc(C)c2C1 | Not satisfied |
| CCCN(CCC)[C@@H]1CCn2c(ccc2CN(C)C)C1 | Not satisfied |
| CCCN(CCC)[C@@H]1CCn2c(ccc2C(C)=O)C1 | Not satisfied |
| CCCN(CCC)[C@H]1CCn2c(ccc2C(=O)C(F)(F)F)C1 | Satisfied |
| CCCN(CCC)[C@@H]1CCn2c(ccc2C(=O)C(F)(F)F)C1 | Not satisfied |
| CCCN(CCC)[C@H]1CCn2c(/C=N/O)ccc2C1 | Satisfied |
| CCCN(CCC)[C@H]1CCn2c(ccc2-c2ccccc2)C1 | Not satisfied |
| CCCN(CCC)[C@H]1CCn2c(ccc2C(C)=O)C1 | Satisfied |

###

# study.target: D(2) dopamine receptor (Homo sapiens, UniProt P14416)
# Type: cell-based, CHO
pKi: −log10 of the molar value.
measured.parameter: pKi

| cpd.smiles | observed.value |
| --- | --- |
| CCCN(CCC)[C@H]1CCn2c(C=O)ccc2C1 | 5.16 |
| CCCN(CCC)[C@H]1CCn2c(C#N)ccc2C1 | 5.19 |

###

# study.target: D(2) dopamine receptor (Rattus norvegicus, UniProt P61169)
# Sequence (P61169 whole entry): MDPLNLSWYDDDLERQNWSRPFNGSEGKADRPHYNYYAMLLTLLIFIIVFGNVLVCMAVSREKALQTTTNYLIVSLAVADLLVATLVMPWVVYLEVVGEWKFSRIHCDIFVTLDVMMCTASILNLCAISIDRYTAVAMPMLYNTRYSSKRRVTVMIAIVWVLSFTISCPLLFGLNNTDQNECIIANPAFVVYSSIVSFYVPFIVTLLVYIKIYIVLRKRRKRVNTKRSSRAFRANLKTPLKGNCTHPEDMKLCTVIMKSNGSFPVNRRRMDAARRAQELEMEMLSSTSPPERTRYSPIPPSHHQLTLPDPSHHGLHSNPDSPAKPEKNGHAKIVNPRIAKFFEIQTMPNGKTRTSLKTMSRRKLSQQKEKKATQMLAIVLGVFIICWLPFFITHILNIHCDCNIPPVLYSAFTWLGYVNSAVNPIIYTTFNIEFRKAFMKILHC
# assay.name: Effective concentration to stimulate rat Dopamine receptor D2S mediated [3H]thymidine incorporation into growing cells using mitogenesis assay
pEC50: −log10 of the molar value.

| cpd.smiles | pEC50 |
| --- | --- |
| CCCN(CCC)[C@H]1CCn2c(C=O)ccc2C1 | 7.10 |
| CCCN(CCC)[C@H]1CCn2c(C#N)ccc2C1 | 6.89 |

###

A set of molecules tested on UniProt P35462, with measured Ki:
measured.parameter: Ki (nM)

| cpd.smiles | observed.value |
| --- | --- |
| CCCN(CCC)[C@H]1CCn2c(C=O)ccc2C1 | 5.3 |
| CCCN(CCC)[C@H]1CCn2c(C#N)ccc2C1 | 7.2 |

###

pKi values by entry
# study.target: UniProt Q95136
# Sequence (Q95136 whole entry): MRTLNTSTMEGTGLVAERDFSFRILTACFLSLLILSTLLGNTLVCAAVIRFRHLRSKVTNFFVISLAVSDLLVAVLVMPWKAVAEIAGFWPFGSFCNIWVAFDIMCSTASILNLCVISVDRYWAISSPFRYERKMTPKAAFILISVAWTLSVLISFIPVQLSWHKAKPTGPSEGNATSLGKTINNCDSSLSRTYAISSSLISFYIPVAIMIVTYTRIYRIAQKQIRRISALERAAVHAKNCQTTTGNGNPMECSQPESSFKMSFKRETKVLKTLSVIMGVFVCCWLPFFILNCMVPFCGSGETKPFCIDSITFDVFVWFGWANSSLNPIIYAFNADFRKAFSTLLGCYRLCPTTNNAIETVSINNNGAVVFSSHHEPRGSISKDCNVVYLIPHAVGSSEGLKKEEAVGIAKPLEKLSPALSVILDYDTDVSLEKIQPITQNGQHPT
# assay.name: Inhibition constant against [3H]SCH-23390 binding to Dopamine receptor D1 in bovine striatal membranes
pKi: −log10 of the molar value.

| compound | pKi |
| --- | --- |
| CCCN(CCC)[C@H]1CCn2c(C=O)ccc2C1 | < 4.70 |
| CCCN[C@H]1CCc2nc(N)sc2C1 [PRAMIPEXOLE] | < 4.70 |
| CCCN(CCC)[C@H]1CCn2c(C#N)ccc2C1 | < 4.70 |

Data provenance is ChEMBL document CHEMBL1143571.
